system: 633275-114-R-J1-PDC complex spheroids, viability; assay: Anticancer human tumor 633275-114-R-J1-PDC patient-derived endometrial adenocarcinoma cell line growth inhibition [GQUAD]; details: curve of first compound; second compound 0.316 µM;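 note: spheroids exposed to the agents for seven days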
Readings of pIC50 for the listed molecules
Conceptually, pIC50 converts a concentration in mol/L into minus its log10.

- molecule: "CCCS(=O)(=O)Nc1ccc(F)c(C(=O)c2c[nH]c3ncc(-c4ccc(Cl)cc4)cc23)c1F + CN(C)c1ccc(Nc2c3ccc(NC(=O)CCN4CCCC4)cc3nc3cc(NC(=O)CCN4CCCC4)ccc23)cc1"
  measurement-type: "pIC50"
  assay-value: 5.02

// next entry
Request: Find the measured pIC50: item CCc1c2c(nc3ccc(O)cc13)-c1cc3c(c(=O)n1C2)COC(=O)[C@]3(O)CC + CN(C)c1ccc(Nc2c3ccc(NC(=O)CCN4CCCC4)cc3nc3cc(NC(=O)CCN4CCCC4)ccc23)cc1 , target or system 633275-114-R-J1-PDC complex spheroids, viability.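 Note: spheroids exposed to the agents for seven days.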
Response: 8.48

src = PubChem BioAssay AID2060505
